Cited source for all entries: patent US6887873B2

IC50 overview
System: human telomerease (HL60 cell extract)
Test: Antitelomerease activity: extension of oligonucleotide TS followed by PCR amplification, with HL60 extract
Assay type: biochemical
Details: read-out: TRAP IC50
Experimental: The antitelomerease biological activity is determined by the following experimental protocol: The leukaemia line HL60 is obtained from ATCC (American Type Culture Collection, Rockville, USA). […] The samples are then analysed by electrophoresis on 12% acrylamide gel in a 1×TBE buffer for 1 hour at a voltage of 200 volts, with the aid of a Novex electrophoresis system. […] The analysis and the quantification of the reaction products are carried out with the aid of an InstantImager apparatus (Pacard). […]
measurement-name: IC50 (nM)

- Cc1cc(N(C)C)c2cc(Nc3nc(Nc4ccc5nc(C)cc(N(C)C)c5c4)nc(N4CCC[C@H]4CN4CCCC4)n3)ccc2n1: 2500
- COc1cccc(Nc2nc(Nc3ccc4nc(C)cc(N)c4c3)nc(Nc3ccc4nc(C)cc(N)c4c3)n2)c1: 1600
- Cc1cc(N)c2cc(Nc3nc(Nc4ccc5nc(C)cc(N)c5c4)nc(Nc4ccccn4)n3)ccc2n1: 1200
- Cc1cc(N(C)C)c2cc(Nc3nc(Nc4ccc5nc(C)cc(N(C)C)c5c4)nc(N4CCCN(C)CC4)n3)ccc2n1: 400

###

test system: A549 cells; experiment: Cytotoxic activity on human tumour line A549, neutral red, 96 hours; type: cell-based; conditions: Homo sapiens, A549, A549; read-out: Cytotox. A549 IC50
IC50 overview
measurement-name: IC50 (µM)

- Cc1cc(N(C)C)c2cc(Nc3nc(Nc4ccc5nc(C)cc(N(C)C)c5c4)nc(N4CCC[C@H]4CN4CCCC4)n3)ccc2n1: 0.096
- Cc1cc(N)c2cc(Nc3nc(Nc4ccc5nc(C)cc(N)c5c4)nc(N4CCCC4c4cccnc4)n3)ccc2n1 (stereo not shown): 18.9
- CCN(CCNc1nc(Nc2ccc3nc(C)cc(N(C)C)c3c2)nc(Nc2ccc3nc(C)cc(N(C)C)c3c2)n1)c1cccc(C)c1: 1.5
- Cc1cc(N(C)C)c2cc(Nc3nc(Nc4ccc5nc(C)cc(N(C)C)c5c4)nc(Oc4ccncc4)n3)ccc2n1: 1.6
- Cc1cc(N)c2cc(Nc3nc(Nc4ccc5nc(C)cc(N)c5c4)nc(NC4CCN(Cc5ccccc5)C4)n3)ccc2n1 (stereo not shown): 9.9
- Cc1cc(N)c2cc(Nc3nc(Nc4ccc5nc(C)cc(N(C)C)c5c4)nc(Nc4ccccc4Cl)n3)ccc2n1: 6
- Cc1cc(N)c2cc(Nc3nc(Nc4ccc5nc(C)cc(N)c5c4)nc(N4CCN(c5ccc6ccccc6n5)CC4)n3)ccc2n1: 12.4

###

IC50 overview
test system: human telomerease (HL60 cell extract); assay: Antitelomerease activity: extension of oligonucleotide TS followed by PCR amplification, with HL60 extract; type: biochemical; details: read-out: TRAP IC50
measurement-name: IC50 (nM)

- Cc1cc(N)c2cc(Nc3nc(NCCCN(C)C)nc(Nc4ccc5nc(C)cc(N(C)C)c5c4)n3)ccc2n1: 100
- Cc1cc(N)c2cc(Nc3nc(Nc4ccc5nc(C)cc(N)c5c4)nc(N4CCCN(CCCN5CCCC5)CC4)n3)ccc2n1: 110
- Cc1cc(N)c2cc(Nc3nc(Nc4ccc(N5CCNCC5)cc4)nc(Nc4ccc5nc(C)cc(N)c5c4)n3)ccc2n1: 190
- Cc1cc(N)c2cc(Nc3nc(Nc4ccc5nc(C)cc(N)c5c4)nc(N4CCN(C(=O)C5CCCO5)CC4)n3)ccc2n1 (stereo not shown): 210
